- MEASURED_ON: glutathione-S-transferase (GST) tagged LXRbeta LBD (ligand binding domain) (Homo sapiens, UniProt P55055)
- Sequence (P55055 222-460 limits assumed): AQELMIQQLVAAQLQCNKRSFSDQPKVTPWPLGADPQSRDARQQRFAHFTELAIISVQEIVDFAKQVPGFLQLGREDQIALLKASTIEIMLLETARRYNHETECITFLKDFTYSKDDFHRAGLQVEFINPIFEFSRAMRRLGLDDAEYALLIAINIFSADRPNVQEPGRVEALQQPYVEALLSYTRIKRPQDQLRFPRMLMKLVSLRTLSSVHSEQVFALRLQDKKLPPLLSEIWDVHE
- ASSAY_PROCEDURE: LanthaScreen TR-FRET Liver X Receptor Coactivator Assay, LXR beta-LBD
- STUDY_CONDITIONS: potency (Inflection Point) of co-activator recruitment, TR-FRET; read-out: LXR beta IP
- Experimental: While running the LanthaScreen™ TR-FRET Liver X Receptor Coactivator Assay, LXR alpha-LBD or LXR beta-LBD was added to ligand test compounds followed by addition of a mixture of a fluorescein-labelled coactivator peptide and terbium-conjugated anti-GST antibody. After an incubation period at room temperature, TR-FRET (time-resolved fluorescence resonance energy transfer) was measured using a filter-based instrument capable of TR-FRET, e.g. PerkinElmer Envision.
// reported EC50 per item
Write down the numeric answer in nM and omit the unit.

These recorded examples may help you get a feel for the data.
CN(C)C(=O)c1ccc(-c2ccc(N3CCCN(C(=O)OC(C)(C)C)CC3)cc2)cc1Cl
63
CN(C)C(=O)c1ccc(-c2ccc(N3CCN(S(=O)(=O)c4c(Cl)cccc4C(F)(F)F)CC3)c(Cl)c2)cc1Cl
597
CCCC(O)(C(=O)N1CCN(c2ncc(-c3ccc(C(=O)N(C)C)c(Cl)c3)cc2C#N)CC1)C(F)(F)F (stereo not shown)
94
CNC(=O)c1ccc(-c2cnc(N3CCN(C(=O)OC(C)(C)C)CC3)c(C#N)c2)cc1Cl
176

Field request: EC50 | item: CN(C)C(=O)c1ccc(-c2cnc(N3CCN(C(=O)c4c(F)cccc4Cl)CC3)c(C#N)c2)cc1Cl
147

Field request: EC50 | item: CN(C)C(=O)c1ccc(-c2cnc(N3CCN(C(=O)OC(C)(C)C)CC3)c(CO)c2)cc1Cl
730

Field request: EC50 | item: CN(C)C(=O)c1ccc(-c2cnc(N3CCN(S(=O)(=O)c4cccs4)CC3)c(C#N)c2)cc1Cl
31

* * *

// reported Emax per item
- MEASURED_ON: glutathione-S-transferase (GST) tagged LXRalpha LBD (ligand binding domain) (Homo sapiens)
- Construct: purchased Invitrogen pv4655
- Sequence (Q13133 209-447 limits assumed): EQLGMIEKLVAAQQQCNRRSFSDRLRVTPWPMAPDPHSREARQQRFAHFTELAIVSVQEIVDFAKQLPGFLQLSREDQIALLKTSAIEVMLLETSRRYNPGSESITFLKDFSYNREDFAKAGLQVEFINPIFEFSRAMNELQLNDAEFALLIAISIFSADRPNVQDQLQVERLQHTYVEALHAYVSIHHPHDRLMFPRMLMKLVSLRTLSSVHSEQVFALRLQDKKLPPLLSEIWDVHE
- ASSAY_PROCEDURE: LanthaScreen TR-FRET Liver X Receptor Coactivator Assay, LXR alpha-LBD
- Type: biochemical
- STUDY_CONDITIONS: efficacy in relation to reference dual agonist T1317; read-out: LXR alpha activity at max dose (%) (Emax)
Write down the numeric answer in % and omit the unit.

CC(C)(C)OC(=O)N1CCN(c2ncc(-c3ccc(C(=O)NCc4ncc[nH]4)c(Cl)c3)cc2C#N)CC1
68
Cc1nonc1CC(=O)N1CCN(c2ncc(-c3ccc(C(=O)N(C)C)c(Cl)c3)cc2C#N)CC1
10
CN(C)C(=O)c1ccc(-c2cnc(N3CCN(C(=O)C4(c5ccc(Cl)cc5Cl)CC4)CC3)c(C#N)c2)cc1Cl
49

Field request: Emax | item: CN(C)C(=O)c1ccc(-c2cnc(N3CCN(C(=O)Cc4c[nH]c5ccccc45)CC3)c(C#N)c2)cc1Cl
54

Field request: Emax | item: CN(C)C(=O)c1ccc(-c2ccc(N3CCN(C(=O)c4c(F)cccc4C(F)(F)F)CC3)c(Cl)c2)cc1Cl
64

Field request: Emax | item: CN(C)C(=O)c1ccc(-c2cnc(N3CCN(C(=O)C(O)(C(F)(F)F)C(F)(F)F)CC3)c(C#N)c2)cc1Cl
66
